Target: Recombinant human LTC4 synthase (Homo sapiens, UniProt Q16873)
Sequence (Q16873 1-150): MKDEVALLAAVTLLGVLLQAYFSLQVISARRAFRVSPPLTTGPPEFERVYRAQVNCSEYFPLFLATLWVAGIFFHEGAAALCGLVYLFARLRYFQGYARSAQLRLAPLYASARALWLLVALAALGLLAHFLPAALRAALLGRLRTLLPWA
Test: LTC4 synthase in vitro assay (LTA4 to LTC4, HTRF detection)
ENDPOINT_NAME: IC50 (nM)
Report as a plain number; the unit nM is understood.

{"MOLECULE": "CCOc1ccc(C(=O)c2ccc(C(=O)c3ccc(N(C)c4ccc(Cl)cc4)cn3)cc2C(=O)O)cc1OCC [5:14]", "UNIT": "nM", "RECORDED_NUMBER": 77}

State its IC50 on Recombinant human LTC4 synthase (Homo sapiens, UniProt Q16873): CN(c1ccc(Cl)cc1)c1ccc(C(=O)c2ccc(NCc3ccc(F)cc3)c(C(=O)O)c2)nc1 [2:10] 157

State its IC50 on Recombinant human LTC4 synthase (Homo sapiens, UniProt Q16873): O=C(c1ccc(Oc2ccccc2)c(C(=O)O)c1)c1ccc(OCc2ccc(Cl)c(Cl)c2)cn1 [11:9] 69

State its IC50 on Recombinant human LTC4 synthase (Homo sapiens, UniProt Q16873): CN(c1ccc(Cl)cc1)c1ccc(C(=O)c2ccc(Oc3ccc(F)c(F)c3)c(C(=O)O)c2)nc1 [1:2] 104

State its IC50 on Recombinant human LTC4 synthase (Homo sapiens, UniProt Q16873): CN(c1ccc(Cl)cc1)c1ccc(C(=O)c2ccc(-c3ccccc3C(F)(F)F)c(C(=O)O)c2)nc1 [21:1] 138

State its IC50 on Recombinant human LTC4 synthase (Homo sapiens, UniProt Q16873): CN(c1ccc(Cl)cc1)c1ccc(C(=O)c2ccc(Oc3cccc(Cl)c3)c(C(=O)O)c2)nc1 [1:3] 124
